Reference source: paper PMC12040169

viability at 28.5 h, 10 µM reference
Test: in vitro
Details: human, hela cells, % viability
Answer format: numeric, % implied, no suffix.

Examples with their reported viability at 28.5 h, 10 µM follow.
O=C(Nc1ccccc1[N+](=O)[O-])c1cc(S(=O)(=O)NCc2ccccc2)c(Cl)cc1Cl    91.5
CC(=O)N[C@H](Cc1c[nH]c2ccccc12)C(=O)N1CCN(c2ccc(C)cc2)CC1    91.1

Prompt line: If you can, please state the reported viability at 28.5 h, 10 µM value of Cn1cc(C(=O)OCc2cccc(S(=O)(=O)N3CCOCC3)c2)cn1 .
Response line: 88.1

Prompt line: Please look up its viability at 28.5 h, 10 µM: O=C(O)CNC(=O)c1ccccc1NC(=O)c1ccco1
Response line: 90.2

Prompt line: Data request, read-out viability at 28.5 h, 10 µM, for Cc1cnn(CC(=O)NC(C)c2cc3cc(Cl)ccc3o2)c1 (stereo not drawn)
Response line: 90.2

Prompt line: Using the record for Cc1[nH]c(=O)[nH]c(=S)c1C(=O)Nc1ccc(Cl)cc1C#N , report its viability at 28.5 h, 10 µM.
Response line: 91

Prompt line: I would be grateful if you could share the reported viability at 28.5 h, 10 µM for Cc1ccc(NCC2CCN(c3cc(=O)n4oc(C)cc4n3)C2)nc1 (stereo not drawn) .
Response line: 90.1

Prompt line: Param item = Cn1cc2c(n1)[C@H]1CN(C(=O)c3cc(C(F)(F)F)n(C)n3)C[C@H]1C2 ; retrieve measured viability at 28.5 h, 10 µM.
Response line: 88.5

Prompt line: Bench note: what viability at 28.5 h, 10 µM did Cc1noc(C)c1CC(=O)NC(C)c1cc2cc(Cl)ccc2o1 (stereo not drawn) show?
Response line: 90.1
